experiment.notes: physchem
Format: physicochemical
assay.conditions: water, water solubility, estimated
endpoint: solubility

In: Requested read-out: solubility. Entry: O=C(O)CCC/C=C\CC1C(O)CC(O)C1/C=C/C(O)COc1cccc(Cl)c1 (stereo not shown) [cloprostenol sodium]
Out: ~35 mg/mL

###

experiment.notes: Authors' study / animal trial: half-life from terminal slope of plasma concentration versus time profile
Format: in vivo
assay.conditions: cattle, intramuscular, 0.5 mg cloprostenol as the sodium salt in a fast-release aqueous composition, read-out: estimated half-life of cloprostenol in plasma
endpoint: half-life

In: Requested read-out: half-life. Entry: O=C(O)CCC/C=C\CC1C(O)CC(O)C1/C=C/C(O)COc1cccc(Cl)c1 (stereo not shown)
Out: 15 to 60 min

###

experiment.notes: Authors' study / animal trial: half-life from terminal slope of plasma concentration versus time profile
Assay type: in vivo
assay.conditions: Holstein, cattle, intramuscular, 0.5 mg, very rapid absorption, standard cloprostenol injection, read-out: half-life (terminal slope, elimination) (converted)
endpoint: half-life

In: Requested read-out: half-life. Entry: O=C(O)CCC/C=C\CC1C(O)CC(O)C1/C=C/C(O)COc1cccc(Cl)c1 (stereo not shown)
Out: ~1 h

###

experiment.notes: physchem
Assay type: physicochemical
assay.conditions: water, water solubility
endpoint: solubility

In: Requested read-out: solubility. Entry: O=C(O)CCC/C=C\CC1C(O)CC(O)C1/C=C/C(O)COc1cccc(Cl)c1 (stereo not shown) [cloprostenol sodium]
Out: > 10000 µg/mL
